Experiment: Plasma protein binding in dog at 0.1 mg/kg, iv administered as 30 mins infusion
Type: ADME, organism-based, Canis lupus familiaris
Settings: read-out: PPB
endpoint name: fraction unbound at 0.5 h

I'd like to know its fraction unbound at 0.5 h. The compound in question is CCc1cc(O)c(F)cc1-c1ccc2c(-c3nc4c([nH]3)CCN(C(=O)c3cnc(N5CCCCC5)cn3)C4)n[nH]c2c1 ≤ 0.001

* * *

Target: Janus Kinase (JAK) (Homo sapiens, UniProt P52333+P23458+O60674+P29597)
Experiment: Inhibition of JAK in human PBMC assessed as reduction in human recombinant IL-2/mouse anti-human CD3 stimulated IFNgamma production preincubated for 1 hr followed by IL2/CD3 stimulation measured after 18 hrs by ELISA
endpoint name: IC50 (nM)
Report only the number, with the unit nM understood.

CCc1cc(O)ccc1-c1ccc2c(C(=O)Nc3ccc(C)nc3)n[nH]c2c1 ... 277.8
CCc1cc(O)ccc1-c1ccc2c(C(=O)NC)n[nH]c2c1 ... 9.1
CCc1cc(O)ccc1-c1ccc2c(-c3nc4c([nH]3)CN(C(C)=O)CC4)n[nH]c2c1 ... 4.5
CCCc1cc(O)ccc1-c1ccc2c(-c3nc4ccccc4[nH]3)n[nH]c2c1 ... 75.4
CCc1cc(O)ccc1-c1ccc2c(-c3nc4ccccc4[nH]3)n[nH]c2c1 ... 10.5

Please look up its IC50: CCc1cc(O)ccc1-c1ccc2c(-c3nc4c([nH]3)CN(C)CC4)n[nH]c2c1 18.6

# IC50 lookup, item CCc1cc(O)ccc1-c1ccc2c(-c3nc4c([nH]3)CN(S(C)(=O)=O)CC4)n[nH]c2c1 39.1

Given CCc1cc(O)c(F)cc1-c1ccc2c(-c3nc4c([nH]3)CN(Cc3ccccc3)CC4)n[nH]c2c1 , state its recorded IC50. 30.4

Would you kindly share the measured IC50 for CCc1cc(O)ccc1-c1ccc2c(C(N)=O)n[nH]c2c1 ? 19.1

Fill in: IC50 of Oc1cccc(-c2ccc3c(-c4nc5ccccc5[nH]4)n[nH]c3c2)c1 is ___ 572.7

* * *

Assay: Plasma protein binding in rat at 0.5 mg/kg, iv
Format: ADME, organism-based
Settings: read-out: PPB
endpoint name: fraction unbound

What value of fraction unbound has been reported for the following molecule? CCc1cc(O)c(F)cc1-c1ccc2c(-c3nc4c([nH]3)CCN(C(=O)c3cnc(N5CCCCC5)cn3)C4)n[nH]c2c1 ≤ 0.001

* * *

# T1/2 per record follows
Target: Janus Kinase (JAK) (Homo sapiens, UniProt P52333+P23458+O60674+P29597)

Consider the reported T1/2 for these compounds:
CCc1cc(O)c(F)cc1-c1ccc2c(-c3nc4c([nH]3)CCN(C(=O)c3cnc(N5CCCCC5)cn3)C4)n[nH]c2c1 ... > 6 h
CCc1cc(O)ccc1-c1ccc2c(-c3nc4ccccc4[nH]3)n[nH]c2c1 ... 6.5 h

Identify the measured T1/2 of CCc1cc(O)c(F)cc1-c1ccc2c(-c3nc4ccccc4[nH]3)n[nH]c2c1 for Janus Kinase (JAK) (Homo sapiens, UniProt P52333+P23458+O60674+P29597). 3.5 h

Please state recorded T1/2 (tested on Janus Kinase (JAK) (Homo sapiens, UniProt P52333+P23458+O60674+P29597)) of CCc1cc(O)ccc1-c1ccc2c(C(=O)Nc3ccc(C)nc3)n[nH]c2c1 4.5 h
